These entries and their values trace back to patent US20230322854A1.

Test system: unbundled Huntingtin fibrils (exon 1)
assay.notes: Radioactive binding assay, immobilized unbundled Huntingtin fibrils
applied.conditions: Alanine scan of HD1
reported.metric: effect on binding of mutating the HD1 residue to Alanine

sequence.content: MDWWAMWPSL [P5]
measured.on: unbundled Huntingtin fibrils (exon 1)
result: decrease binding
//
sequence.content: MDWWPMWASL [P8]
measured.on: unbundled Huntingtin fibrils (exon 1)
result: decrease binding
//
sequence.content: MDAWPMWPSL [W3]
measured.on: unbundled Huntingtin fibrils (exon 1)
result: decrease binding
//
sequence.content: MDWWPMWPSA [L10]
measured.on: unbundled Huntingtin fibrils (exon 1)
result: decrease binding

###

System: unbundled Huntingtin fibrils (exon 1)
assay.notes: Radioactive binding assay, immobilized unbundled Huntingtin fibrils
applied.conditions: versus HD8 with GSGTSGSS; HD8 MA versus HD8 MM
reported.metric: effect on HD8 binding affinity of constant region / N-terminal mutation

sequence.content: MWQMMNGMSQGS [HD 8GS]
result: loss could be recovered
//
sequence.content: MWQMMNGMSQG [HD 8G]
result: loss could be recovered
